// provenance: ChEMBL document CHEMBL1955749

Test: Selectivity index, ratio of TC50 for MDCK cells to IC50 for influenza A virus H3N2
Type: toxicity, cell-based
Settings: dog, read-out: Selectivity Index
Listing of recorded selectivity ratio by entry.

Chemical Smiles: C=C(C(=O)OCCCN1CCN(c2ccccc2)CC1)[C@@H]1CC[C@H](C)[C@@H]2CC(=O)C(C)=C2C1
selectivity ratio: 3
--
Chemical Smiles: C=C(C(=O)OCCCCN1CCN(C)CC1)[C@@H]1CC[C@H](C)[C@@H]2CC(=O)C(C)=C2C1
selectivity ratio: 9
--
Chemical Smiles: C=C(C(=O)OCCCCCCCCn1cncn1)[C@@H]1CC[C@H](C)[C@@H]2CC(=O)C(C)=C2C1
selectivity ratio: 38.8
--
Chemical Smiles: C=C(C(=O)OCCCCCn1cncn1)[C@@H]1CC[C@H](C)[C@@H]2CC(=O)C(C)=C2C1
selectivity ratio: 38.9
--
Chemical Smiles: C=C(C(=O)OCCN1CCN(c2ccccc2)CC1)[C@@H]1CC[C@H](C)[C@@H]2CC(=O)C(C)=C2C1
selectivity ratio: 9
--
Chemical Smiles: C=C(C(=O)O)[C@@H]1CC[C@H](C)[C@@H]2CC(=O)C(C)=C2C1
selectivity ratio: 181
--
Chemical Smiles: C=C(C(=O)OCCCCn1cncn1)[C@@H]1CC[C@H](C)[C@@H]2CC(=O)C(C)=C2C1
selectivity ratio: 9
--
Chemical Smiles: C=C(C(=O)OCCCCCCn1cncn1)[C@@H]1CC[C@H](C)[C@@H]2CC(=O)C(C)=C2C1
selectivity ratio: 8

---

Test: Selectivity index, ratio of TC50 for MDCK cells to IC50 for influenza A virus H1N1
Format: toxicity, cell-based
Details: dog, read-out: Selectivity Index
// selectivity ratio lookup, one value per entry

Chemical Smiles: NC(=O)c1ncn([C@@H]2O[C@H](CO)[C@@H](O)[C@H]2O)n1
selectivity ratio: 666
//
Chemical Smiles: C=C(C(=O)OCCN1CCN(c2ccccc2)CC1)[C@@H]1CC[C@H](C)[C@@H]2CC(=O)C(C)=C2C1
selectivity ratio: 9
//
Chemical Smiles: C=C(C(=O)OCCCN1CCN(c2ccccc2)CC1)[C@@H]1CC[C@H](C)[C@@H]2CC(=O)C(C)=C2C1
selectivity ratio: 2.7
//
Chemical Smiles: C=C(C(=O)OCCCCCCCCBr)[C@@H]1CC[C@H](C)[C@@H]2CC(=O)C(C)=C2C1
selectivity ratio: 11.8
//
Chemical Smiles: C=C(C(=O)OCCN1CCN(C)CC1)[C@@H]1CC[C@H](C)[C@@H]2CC(=O)C(C)=C2C1
selectivity ratio: 1.8
//
Chemical Smiles: C=C(C(=O)OCCCCCn1cncn1)[C@@H]1CC[C@H](C)[C@@H]2CC(=O)C(C)=C2C1
selectivity ratio: 90.8
//
Chemical Smiles: C=C(C(=O)OCCCCCN1CCN(c2ccccc2)CC1)[C@@H]1CC[C@H](C)[C@@H]2CC(=O)C(C)=C2C1
selectivity ratio: 5.6
//
Chemical Smiles: C=C(C(=O)OCCCCCCCCn1cncn1)[C@@H]1CC[C@H](C)[C@@H]2CC(=O)C(C)=C2C1
selectivity ratio: 28

---

Below is a list of entries, each paired with its recorded CC50 value.
Experiment: Cytotoxicity against MDCK cells
Format: cell-based, Canis lupus familiaris
Conditions: dog, read-out: TC50 (the source's name)

Molecule: C=C(C(=O)OCCN1CCN(c2ccccc2)CC1)[C@@H]1CC[C@H](C)[C@@H]2CC(=O)C(C)=C2C1
CC50 (µM): 445

Molecule: C=C(C(=O)OCCCCCCCCCCBr)[C@@H]1CC[C@H](C)[C@@H]2CC(=O)C(C)=C2C1
CC50 (µM): 138

Molecule: C=C(C(=O)OCCCn1cncn1)[C@@H]1CC[C@H](C)[C@@H]2CC(=O)C(C)=C2C1
CC50 (µM): 311

Molecule: C=C(C(=O)OCCCCCCN1CCN(C)CC1)[C@@H]1CC[C@H](C)[C@@H]2CC(=O)C(C)=C2C1
CC50 (µM): 86

Molecule: C=C(C(=O)OCCCCCCn1cncn1)[C@@H]1CC[C@H](C)[C@@H]2CC(=O)C(C)=C2C1
CC50 (µM): 120

Molecule: C=C(C(=O)OCCCCCn1cncn1)[C@@H]1CC[C@H](C)[C@@H]2CC(=O)C(C)=C2C1
CC50 (µM): 672

Molecule: C=C(C(=O)O)[C@@H]1CC[C@H](C)[C@@H]2CC(=O)C(C)=C2C1
CC50 (µM): 4650

Molecule: C=C(C(=O)OCCCCCN1CCN(c2ccccc2)CC1)[C@@H]1CC[C@H](C)[C@@H]2CC(=O)C(C)=C2C1
CC50 (µM): 112

Molecule: C=C(C(=O)OCCCCCCCCn1cncn1)[C@@H]1CC[C@H](C)[C@@H]2CC(=O)C(C)=C2C1
CC50 (µM): 202

Molecule: C=C(C(=O)OCCCCCCN1CCN(c2ccccc2)CC1)[C@@H]1CC[C@H](C)[C@@H]2CC(=O)C(C)=C2C1
CC50 (µM): 394

Molecule: C=C(C(=O)OCCN1CCN(C)CC1)[C@@H]1CC[C@H](C)[C@@H]2CC(=O)C(C)=C2C1
CC50 (µM): 231

Molecule: C=C(C(=O)OCCCBr)[C@@H]1CC[C@H](C)[C@@H]2CC(=O)C(C)=C2C1
CC50 (µM): 436

Molecule: C=C(C(=O)OCCCCCCCCCCn1cncn1)[C@@H]1CC[C@H](C)[C@@H]2CC(=O)C(C)=C2C1
CC50 (µM): 27.1

Molecule: CCOC(=O)C1=C[C@@H](OC(CC)CC)[C@H](NC(C)=O)[C@@H](N)C1 [OSELTAMIVIR PHOSPHATE]
CC50 (µM): 1260

Molecule: C=C(C(=O)OCCCCCCCCCCN1CCN(c2ccccc2)CC1)[C@@H]1CC[C@H](C)[C@@H]2CC(=O)C(C)=C2C1
CC50 (µM): 456

Molecule: C=C(C(=O)OCCCCCCCCN1CCN(C)CC1)[C@@H]1CC[C@H](C)[C@@H]2CC(=O)C(C)=C2C1
CC50 (µM): 188
